Data credit: BindingDB's records for doi:10.1021/jm00395a016

Molecular target: Thromboxane-A synthase (Rattus norvegicus)
Test: Tested for inhibition of thromboxane Synthetase from spontaneously hypertensive rats
outcome-measure: IC50 (nM)
Hi! Could you send only the number? It should be in nM, unit omitted.

Record summary for CC(Cn1ccnc1)Cn1c(=O)[nH]c2cc(Cl)ccc2c1=O (stereo unspecified) : reported IC50 = 10
